- measured target: Sodium-dependent dopamine transporter (Homo sapiens, UniProt Q01959)
- Sequence (Q01959 whole entry): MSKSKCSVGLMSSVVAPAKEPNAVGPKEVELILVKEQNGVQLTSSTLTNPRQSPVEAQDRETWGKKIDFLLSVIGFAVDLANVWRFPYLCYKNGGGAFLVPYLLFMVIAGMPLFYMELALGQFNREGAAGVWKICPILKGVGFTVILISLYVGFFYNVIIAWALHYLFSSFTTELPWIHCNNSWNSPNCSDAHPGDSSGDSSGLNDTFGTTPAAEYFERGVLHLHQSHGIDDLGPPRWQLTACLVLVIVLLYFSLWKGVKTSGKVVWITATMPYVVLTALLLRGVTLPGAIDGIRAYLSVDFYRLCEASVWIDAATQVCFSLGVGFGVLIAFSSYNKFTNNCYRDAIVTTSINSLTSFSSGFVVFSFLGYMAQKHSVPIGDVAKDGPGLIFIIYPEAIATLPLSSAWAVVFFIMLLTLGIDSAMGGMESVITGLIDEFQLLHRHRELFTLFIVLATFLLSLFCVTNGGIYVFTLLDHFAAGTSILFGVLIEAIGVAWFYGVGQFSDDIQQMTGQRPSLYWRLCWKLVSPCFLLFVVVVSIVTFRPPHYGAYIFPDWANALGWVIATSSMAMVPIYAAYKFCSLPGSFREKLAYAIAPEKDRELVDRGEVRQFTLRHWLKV
pKi: −log10 of the molar value.
Would you mind labelling by pKi? At or over 7 is Satisfied, under is Not satisfied.

Answered examples (4):
[
  {
    "molecule": "CCCC(C(=O)c1ccccc1C)N1CCCC1 (configuration not stated)",
    "qualitative label": "Satisfied"
  },
  {
    "molecule": "CCCC(C(=O)c1ccc(-c2cccs2)cc1)N1CCCC1 (configuration not stated)",
    "qualitative label": "Not satisfied"
  },
  {
    "molecule": "CCCC(C(=O)c1ccc(Cl)c(Cl)c1)N1CCCC1 (configuration not stated)",
    "qualitative label": "Satisfied"
  },
  {
    "molecule": "CCC(CC(=O)c1ccc(Cl)c(Cl)c1)N1CCCC1 (configuration not stated)",
    "qualitative label": "Not satisfied"
  }
]

Q. Form field: pKi at least 7? Entry: CCCC(C(=O)c1ccc(C(=O)OC)cc1)N1CCCC1 (configuration not stated)
A. Not satisfied

Q. Form field: pKi at least 7? Entry: CCCC(C(=O)c1ccc(CO)cc1)N1CCCC1 (configuration not stated)
A. Satisfied

Q. Form field: pKi at least 7? Entry: CCCC(C(=O)c1ccc(C)cc1)N1CCCC1 (configuration not stated) [PYROVALERONE]
A. Satisfied
